- CONDITION_LABEL: in water, 333.15 K
QUANTITY: solubility (mole fraction)

substance_smiles=O=C(O)/C=C\C=C/C(=O)O numeric_value=0.005

---

- CONDITION_LABEL: in ethanol, 323.15 K
QUANTITY: solubility (mole fraction)

substance_smiles=O=C(O)/C=C\C=C/C(=O)O result=0.0293

---

- CONDITION_LABEL: in water, 323.15 K
QUANTITY: solubility (mole fraction)

substance_smiles=O=C(O)/C=C\C=C/C(=O)O numeric_value=0.0021

---

- CONDITION_LABEL: in water, 328.15 K
QUANTITY: solubility (mole fraction)

substance_smiles=O=C(O)/C=C\C=C/C(=O)O quantity="solubility (mole fraction)" result=0.0031

---

- CONDITION_LABEL: in isopropanol, 318.15 K
QUANTITY: solubility (mole fraction)

substance_smiles=O=C(O)/C=C\C=C/C(=O)O numeric_value=0.0156

---

- CONDITION_LABEL: in ethanol, 328.15 K
QUANTITY: solubility (mole fraction)

substance_smiles=O=C(O)/C=C\C=C/C(=O)O quantity="solubility (mole fraction)" numeric_value=0.037

---

- CONDITION_LABEL: in acetic acid, 313.15 K
QUANTITY: solubility (mole fraction)

substance_smiles=O=C(O)/C=C\C=C/C(=O)O quantity="solubility (mole fraction)" numeric_value=0.0044

---

- CONDITION_LABEL: in water, 318.15 K
QUANTITY: solubility (mole fraction)

substance_smiles=O=C(O)/C=C\C=C/C(=O)O result=0.0014

---

- CONDITION_LABEL: in ethanol, 318.15 K
QUANTITY: solubility (mole fraction)

substance_smiles=O=C(O)/C=C\C=C/C(=O)O numeric_value=0.0236

---

- CONDITION_LABEL: in ethanol, 333.15 K
QUANTITY: solubility (mole fraction)

substance_smiles=O=C(O)/C=C\C=C/C(=O)O numeric_value=0.0478

---

- CONDITION_LABEL: in water, 313.15 K
QUANTITY: solubility (mole fraction)

substance_smiles=O=C(O)/C=C\C=C/C(=O)O quantity="solubility (mole fraction)" numeric_value=0.0008

---

- CONDITION_LABEL: in water, 298.15 K
QUANTITY: solubility (mole fraction)

substance_smiles=O=C(O)/C=C\C=C/C(=O)O numeric_value=0.0002

---

- CONDITION_LABEL: in acetic acid, 338.15 K
QUANTITY: solubility (mole fraction)

substance_smiles=O=C(O)/C=C\C=C/C(=O)O numeric_value=0.0086

---

- CONDITION_LABEL: in ethanol, 303.15 K
QUANTITY: solubility (mole fraction)

substance_smiles=O=C(O)/C=C\C=C/C(=O)O quantity="solubility (mole fraction)" numeric_value=0.0139

---

- CONDITION_LABEL: in ethanol, 308.15 K
QUANTITY: solubility (mole fraction)

substance_smiles=O=C(O)/C=C\C=C/C(=O)O quantity="solubility (mole fraction)" numeric_value=0.016

---

- CONDITION_LABEL: in acetic acid, 303.15 K
QUANTITY: solubility (mole fraction)

substance_smiles=O=C(O)/C=C\C=C/C(=O)O numeric_value=0.0034

---

- CONDITION_LABEL: in acetic acid, 298.15 K
QUANTITY: solubility (mole fraction)

substance_smiles=O=C(O)/C=C\C=C/C(=O)O numeric_value=0.0029
